molecular target: Adenosine receptor A1 (Rattus norvegicus, UniProt P25099); assay: Displacement of [3H]DPCPX from Sprague-Dawley rat whole brain membrane A1AR in presence of GTP by radioligand binding assay; assay type: cell membranes
pKi: −log10 of the molar value.
endpoint label: pKi

• O=c1oc(-c2ccccc2)nc2ccccc12 = 5.16

P. O=C1OC(c2ccccc2)Nc2ccccc21 (centres undefined)
Q. Cc1ccc(-c2nc3ccccc3c(=O)[nH]2)cc1
Inquiry: Between P and Q , whose measured pKi reads higher? Select an item and report its label.
Reply text: Q

###

Target: Adenosine receptor A1 (Rattus norvegicus)
Sequence (whole entry): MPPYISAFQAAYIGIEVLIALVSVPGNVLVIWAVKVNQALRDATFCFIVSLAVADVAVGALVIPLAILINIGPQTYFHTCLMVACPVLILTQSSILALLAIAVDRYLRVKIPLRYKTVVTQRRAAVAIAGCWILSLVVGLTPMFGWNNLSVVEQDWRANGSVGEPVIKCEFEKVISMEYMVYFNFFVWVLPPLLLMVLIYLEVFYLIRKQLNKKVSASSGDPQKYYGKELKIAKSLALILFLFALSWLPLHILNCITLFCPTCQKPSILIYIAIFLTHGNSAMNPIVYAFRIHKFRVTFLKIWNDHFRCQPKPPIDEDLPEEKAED
Test: Ratio of Ki for displacement of [3H]DPCPX from Sprague-Dawley rat whole brain membrane A1AR in presence of GTP to Ki for displacement of [3H]DPCPX from Sprague-Dawley rat whole brain A1AR
Format: cell membranes
endpoint label: Ratio Ki

• O=c1[nH]c(-c2ccco2)nc2ccccc12 = 1.23
• Cc1ccc(-c2nc3ccccc3c(=O)[nH]2)cc1 = 1.18
• O=C1OC(c2ccccc2)Nc2ccccc21 (centres undefined) = 1.12
• O=c1oc(-c2ccccc2)nc2ccccc12 = 1.09

###

target: Adenosine receptor A1 (Rattus norvegicus); test: Displacement of [3H]DPCPX from Sprague-Dawley rat whole brain membrane A1AR at 100 uM by scintillation counting analysis relative to control; type: cell membranes
endpoint label: inhibition (%)

Consider the following illustrative entries.
* O=c1oc(-c2ccco2)nc2ccccc12 | 42
* O=c1oc(-c2ccc(F)cc2)nc2ccccc12 | 100

I. Oc1nc(-c2cccs2)nc2ccccc12
II. O=c1oc(/C=C/c2ccccc2)nc2ccccc12
Inquiry: Compare I and II and name the one whose reported inhibition is smaller. Output the label that corresponds to your choice.
Reply text: I
(I: 39%, II: 56%)

###

target: Adenosine receptor A1 (Rattus norvegicus); test: Displacement of [3H]DPCPX from Sprague-Dawley rat whole brain membrane A1AR by scintillation counting analysis; type: cell membranes
pKi: −log10 of the molar value.
endpoint label: pKi

A. O=c1oc2ccccc2nc1-c1ccccc1
B. O=c1oc(-c2cccs2)nc2ccccc12
C. Cc1ccc(-c2nc3ccccc3c(=O)[nH]2)cc1
D. O=c1oc(-c2ccccc2)nc2ccccc12
Inquiry: Using measured pKi, arrange the molecules from above in descending sequence. Enter labels, ranked according to the request.
Reply text: C, D, A, B
(C: 5.60, D: 5.20, A: 4.76, B: 4.49)

###

Molecular target: Adenosine receptor A1 (Rattus norvegicus, UniProt P25099)
Sequence (P25099 whole entry): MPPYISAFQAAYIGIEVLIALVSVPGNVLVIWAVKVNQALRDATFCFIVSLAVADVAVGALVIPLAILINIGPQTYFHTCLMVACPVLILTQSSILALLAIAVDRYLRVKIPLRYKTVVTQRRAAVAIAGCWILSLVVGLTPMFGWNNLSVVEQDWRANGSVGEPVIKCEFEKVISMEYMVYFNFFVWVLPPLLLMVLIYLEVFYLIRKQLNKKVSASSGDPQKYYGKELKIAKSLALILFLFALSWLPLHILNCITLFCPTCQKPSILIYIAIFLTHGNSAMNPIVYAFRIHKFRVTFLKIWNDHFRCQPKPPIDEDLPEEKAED
Assay: Displacement of [3H]DPCPX from Sprague-Dawley rat whole brain membrane A1AR by scintillation counting analysis
Assay type: cell membranes
endpoint label: Ki

For orientation, consider the following solved cases.
• O=c1oc(-c2ccc(F)cc2)nc2ccccc12 = > 100 µM
• O=c1[nH]c(-c2ccc(Br)cc2)nc2ccccc12 = > 100 µM

Inquiry: Recorded Ki for O=c1[nH]c(/C=C/c2ccccc2)nc2ccccc12 , please?
Reply text: > 100 µM
